protocolText: Pharmacokinetics assay in rats, single intravenous injection
Format: in vivo
measurementContext: rat, iv; male SD rats, i.v. 1 mg/kg, plasma
measuredParameter: MRT (h)

[
  {
    "smilesNotation": "Nc1nc(N2CCC3(CC2)Cc2ccccc2[C@H]3N)c(F)nc1Sc1ccnc(N)c1Cl",
    "measuredParameter": "MRT",
    "valueMeasured": 4.26
  }
]

* * *

Reported values of Tmax for individual entries
protocolText: Pharmacokinetics assay in rats, oral administration
Assay type: in vivo
measurementContext: rat; male SD rats, oral 5 mg/kg, plasma

[
  {
    "compound": "Nc1nc(N2CCC3(CC2)Cc2ncsc2[C@H]3N)c(F)nc1Sc1ccnc(N)c1Cl [Example 181]",
    "unitAbbrev": "h",
    "Tmax": 2
  },
  {
    "compound": "Nc1nc(N2CCC3(CC2)Cc2ncccc2[C@H]3N)c(F)nc1Sc1ccnc(N)c1Cl [Example 180]",
    "unitAbbrev": "h",
    "Tmax": 1
  },
  {
    "compound": "Nc1nccc(Sc2cnc(N3CCC4(CC=C(C5CC5)[C@H]4N)CC3)cn2)c1Cl [Example 144]",
    "unitAbbrev": "h",
    "Tmax": 1
  },
  {
    "compound": "Cc1nc(N2CCC3(CC2)Cc2ncsc2[C@H]3N)c(CO)nc1Sc1ccnc(N)c1Cl [Example 171]",
    "unitAbbrev": "h",
    "Tmax": 1
  },
  {
    "compound": "Nc1nc(N2CCC3(CC2)Cc2ccccc2[C@H]3N)c(F)nc1Sc1ccnc(N)c1Cl [Example 179]",
    "unitAbbrev": "h",
    "Tmax": 2
  }
]

Provenance of the data: patent US20210355105A1
